Target system: human TLR7 (hTLR7) (Homo sapiens)
Construct: host or cells: HEK293 (HEK-Blue hTLR7)
Sequence (Q9NYK1 27-1049): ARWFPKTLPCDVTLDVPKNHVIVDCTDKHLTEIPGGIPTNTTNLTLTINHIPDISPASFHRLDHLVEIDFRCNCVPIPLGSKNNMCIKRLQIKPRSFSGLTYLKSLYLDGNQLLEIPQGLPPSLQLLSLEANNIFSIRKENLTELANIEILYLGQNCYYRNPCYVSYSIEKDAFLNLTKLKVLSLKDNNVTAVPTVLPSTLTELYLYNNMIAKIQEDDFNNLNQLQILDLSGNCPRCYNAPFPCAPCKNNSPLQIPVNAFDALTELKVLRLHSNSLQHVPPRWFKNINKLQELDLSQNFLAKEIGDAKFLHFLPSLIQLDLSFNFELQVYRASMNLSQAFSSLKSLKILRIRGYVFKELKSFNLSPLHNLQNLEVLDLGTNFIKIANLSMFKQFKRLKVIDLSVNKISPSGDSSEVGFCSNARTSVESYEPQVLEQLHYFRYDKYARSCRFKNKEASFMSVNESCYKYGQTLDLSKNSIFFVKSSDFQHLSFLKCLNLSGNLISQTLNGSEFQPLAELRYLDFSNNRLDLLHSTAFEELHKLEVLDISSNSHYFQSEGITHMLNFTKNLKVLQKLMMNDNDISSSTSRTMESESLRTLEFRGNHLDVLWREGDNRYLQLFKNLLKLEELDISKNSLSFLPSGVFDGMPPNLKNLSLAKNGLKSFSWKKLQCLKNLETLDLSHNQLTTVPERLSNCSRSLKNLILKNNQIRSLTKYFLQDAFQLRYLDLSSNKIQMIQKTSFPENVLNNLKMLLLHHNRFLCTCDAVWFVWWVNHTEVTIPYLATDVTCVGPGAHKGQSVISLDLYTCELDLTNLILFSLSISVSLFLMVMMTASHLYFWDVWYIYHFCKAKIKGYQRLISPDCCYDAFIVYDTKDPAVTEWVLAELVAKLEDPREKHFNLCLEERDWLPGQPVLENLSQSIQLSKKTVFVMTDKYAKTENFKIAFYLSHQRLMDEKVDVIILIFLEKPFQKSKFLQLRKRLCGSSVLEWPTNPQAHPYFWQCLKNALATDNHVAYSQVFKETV
Experiment summary: HEK-Blue hTLR7 cell assay (NF-kB/AP-1 driven SEAP reporter)
Assay type: cell-based
No end group written: not given here.
Task for the reader: assign each of the following sequences its reported EC50.

Look up EC50 for this sequence: EQLSSVSSFERFEIFPKESSWPNHN [AP11]
> 30 µM

Look up EC50 for this sequence: ESLKISQAVHAAHAEINEAGREVVG [AP10]
> 30 µM

Look up EC50 for this sequence: DTIWALSVKYGVSVQDIMSWNNLSS [AP7]
> 10 µM
